The reported numbers originate from ChEMBL document CHEMBL1137638.

- Test system: Escherichia coli
- MEASUREMENT DESCRIPTION: Activity of Escherichia coli DH5alpha beta-lactamase TEM-12 by microacidimetric method
Catalogue of kcat values
The response must be a number in s⁻¹ with no trailing unit.

# example entries with known answers
Fill in the blank: the reported kcat of CC(C)(O/N=C(\C(=O)N[C@@H]1C(=O)N2C(C(=O)[O-])=C(C[n+]3ccccc3)CS[C@H]12)c1csc(N)n1)C(=O)O is ____.
11.1

Let us now turn to CC1(C)S[C@@H]2[C@H](NC(=O)[C@H](N)c3ccc(O)cc3)C(=O)N2[C@H]1C(=O)O
60

Let us now turn to CO/N=C(\C(=O)N[C@@H]1C(=O)N2C(C(=O)O)=C(COC(C)=O)CS[C@H]12)c1csc(N)n1
10.6

Could you now consider this next compound?
Fill in the blank: the reported kcat of CCN1CCN(C(=O)N[C@@H](C(=O)N[C@@H]2C(=O)N3[C@@H]2SC(C)(C)[C@@H]3C(=O)O)c2ccccc2)C(=O)C1=O is ____.
89
